Answer each item with its documented GI50.
test system: RPMI-8226; assay: NCI tumour cell line growth inhibition, 48 h
Calls of active or inactive are those of the source. No stated cut-off is given here; in the data, active = GI50 up to about 1.1 µM and inactive = higher.

The cases that follow already have their GI50 on record.
Query block: Find the recorded GI50 belonging to CCOC(=O)c1c(-c2ccccc2)oc(-c2ccccc2)c1C(=O)OCC and report it.
Result block: 50 µM (inactive)

Query block: Find the recorded GI50 belonging to O=c1[nH]c(=O)n2n1C1C=CC2CC1 and report it.
Result block: > 100 µM (inactive)

Query block: Find the recorded GI50 belonging to CCCCCC/C=C/C#CCCCCCCCC(=O)O and report it.
Result block: > 100 µM (inactive)

Query block: Find the recorded GI50 belonging to CC(=O)Nc1ccc(C(=O)NN2C(=O)C(Cl)C2c2cc(Br)ccc2O)cc1 (stereo not drawn) and report it.
Result block: 12.1 µM (inactive)

Query block: Find the recorded GI50 belonging to C/C=C1/CC(C)C(C)(O)C(=O)OCC2C(O)CN3CCC(OC1=O)C23 (stereo not drawn) and report it.
Result block: > 100 µM (inactive)

Query block: Find the recorded GI50 belonging to O=C1c2ccccc2CCCCCCCCCCC12OCCCO2 and report it.
Result block: 15.5 µM (inactive)

Parameter requested: GI50. Apply to each item below.
1. CC1=C(c2cc(C(=O)Nc3cccc(C(F)(F)F)c3)nc(NC#N)n2)Sc2ccccc2N1
2. Cc1ccc(S(=O)(=O)NC(=O)N[C@@H](Cc2c[nH]cn2)C(=O)O)cc1

Result block:
1. > 100 µM (inactive)
2. 37.3 µM (inactive)
